# Test system: MOLT 4
# Assay Explanation: MTT cytotoxicity assay, MOLT 4 leukemia
# Type: cell-based
# Cond: Homo sapiens; MOLT 4 Leukemia, 10 mM; read-out: Percent cytotoxicity
Measured Attribute: cytotoxicity at 10000 µM (%)

Compound	Value Measured
COC(=O)C1CCC(=O)N1C(OC(C)=O)C(C)=O (stereo not shown) [MGC-4]	85.9
CCCCOC(=O)C1CCC(=O)N1C(OC(C)=O)C(C)=O (stereo not shown) [MGC-5]	87.9
CCOC(=O)C1CCC(=O)N1C(OC(C)=O)C(C)=O (stereo not shown) [MGC-8]	81.9
CCOC(=O)C1CCC(=O)N1C(O)C(C)=O (stereo not shown) [MGC-7]	73.4
CCCCOC(=O)C1CCC(=O)N1C(O)C(C)=O (stereo not shown) [MGC-2]	90.2
CC(=O)C(O)N1C(=O)CCC1C(=O)OCc1ccccc1 (stereo not shown) [MGC-3]	88.3
CC(=O)OC(C(C)=O)N1C(=O)CCC1C(=O)OCc1ccccc1 (stereo not shown) [MGC-6]	87.1
